target: RSV prefusion F (preF), subtype B (respiratory syncytial virus, subtype B); assay: BLI, IgG
Quick reference for Kd among some binders

>  <binder>
ADI-14599 (antibody, V domains shown) VH: EVQLVESGGGLVQPGRSLRLSCKTSGFTFGDYAMSWVRQAPGQGLDWVGFIRTKAYGGTTEYAASVKGRFTLSRDDSKSIAYLQMNSLKTEDTAVYYCKSGGQFDYWGRGTLVTVSS VL: NFMLTQPHSVSGSPGKTVTISCTGSSGSIASNYVQWYQQRPGSAPTTVICEDNQRPSGVPDRFSGSIDSSSNSASLTISGLKTEDEADYYCQSYDRSNQEVFGGGTKLTVL

>  <unit.of.measure>
nM

>  <Kd>
0.622

$$$$
>  <binder>
ADI-14413 (antibody, V domains shown, also called Ab 79) VH: EVQLVESGGVVVQPGGSLRLSCAASGFNFDDYSMHWVRQAPGKGLEWVSVISWDGGITYYADSVKGRFTMSRDNGKKSLYLQMNSLRTEDTAVYYCGKDGDIYSSSSAGIDYWGQGTLVTVSS VL: SYVLTQPPSASGTPGQRVIISCSGSSSNIGSHTVKWYQQLPGTAPKLLIDRNNQRPSGVPDRFSGPKSGTSASLAISGLQSEDEADYYCASWDDSLNGPVFGGGTQLTVL

>  <unit.of.measure>
nM

>  <Kd>
2.71

$$$$
